# Measured Target: Potassium voltage-gated channel subfamily KQT member 1 (Homo sapiens, UniProt P51787)
# Experimental Protocol: Selectivity interaction (BET inhibitor selectivity panel (Human Blocker ionworks assay)) EUB0000102c KCNQ1
Reported Metric: IC50

**Query** Reported IC50 for "COc1cc2c(cc1-c1c(C)noc1C)ncc1[nH]c(=O)n([C@H](C)c3ccccn3)c12" : what is it?
**Result** > 25 µM

###

# Measured Target: Mitogen-activated protein kinase 10 (Homo sapiens, UniProt P53779)
# Experimental Protocol: Selectivity interaction (Kinase panel (enzymatic assay)) EUB0000595a MAPK10
pIC50: −log10 of the molar value.
Reported Metric: pIC50

**Query** Given the compound "COCC(=O)NC/C=C/c1ccc2ncnc(Nc3ccc(Oc4ccc(C)nc4)c(C)c3)c2c1" , what is its reported pIC50?
**Result** < 5.00

###

# Measured Target: Protein arginine N-methyltransferase 6 (Homo sapiens, UniProt Q96LA8)
# Sequence (Q96LA8 whole entry): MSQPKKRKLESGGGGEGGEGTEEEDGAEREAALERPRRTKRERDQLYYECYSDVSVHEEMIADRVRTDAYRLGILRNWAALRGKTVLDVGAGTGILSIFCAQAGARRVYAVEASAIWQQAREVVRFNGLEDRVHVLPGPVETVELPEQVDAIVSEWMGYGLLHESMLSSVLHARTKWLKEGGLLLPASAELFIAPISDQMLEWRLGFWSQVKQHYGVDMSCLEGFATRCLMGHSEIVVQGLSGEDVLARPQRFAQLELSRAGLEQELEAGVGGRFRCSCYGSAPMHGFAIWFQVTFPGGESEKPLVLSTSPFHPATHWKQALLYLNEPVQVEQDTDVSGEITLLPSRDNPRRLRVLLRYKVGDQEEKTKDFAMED
# Experimental Protocol: Selectivity interaction (Western blot assay (PRMT6 dependent H4R3 asymmetric arginine dimethylation)) EUB0000236b PRMT6
Reported Metric: EC50

**Query** Item "CC1=C(C)C(=O)C(C(C)(C)CC(=O)N(CCCCSC[C@H]2O[C@@H](n3cnc4c(N)ncnc43)[C@@H]3OC(C)(C)O[C@@H]32)Cc2cccc(-c3ccc(Cl)cc3)c2)=C(C)C1=O" has what recorded EC50?
**Result** > 5 nM

###

# Measured Target: KCNE1 (Homo sapiens, UniProt P15382)
# Experimental Protocol: Selectivity interaction (Panel of kinases, GPCRs, ion channels and transporters (enzymatic assay)) EUB0000266bCl KCNE1
Reported Metric: XC50

**Query** Returns the measured XC50 for the input compound. Input: CCn1c(-c2nc3cc(C(=O)N4CCCC(N)C4)ccc3n2C)cc2ccccc21 (stereo unspecified)
**Result** > 25.1 µM

###

# Measured Target: Protein arginine N-methyltransferase 7 (Homo sapiens, UniProt Q9NVM4)
# Experimental Protocol: Selectivity interaction (Scintillation proximity assays) EUB0000255b PRMT7
pIC50: −log10 of the molar value.
Reported Metric: pIC50

**Query** Which pIC50 value belongs to "COCCN1CCC(c2cc(CN(C)C(=O)c3cccc(Oc4ccccc4)c3)ccn2)CC1" ?
**Result** < 5.00

###

# Measured Target: Mast/stem cell growth factor receptor Kit (Homo sapiens, UniProt P10721)
# Sequence (P10721 whole entry): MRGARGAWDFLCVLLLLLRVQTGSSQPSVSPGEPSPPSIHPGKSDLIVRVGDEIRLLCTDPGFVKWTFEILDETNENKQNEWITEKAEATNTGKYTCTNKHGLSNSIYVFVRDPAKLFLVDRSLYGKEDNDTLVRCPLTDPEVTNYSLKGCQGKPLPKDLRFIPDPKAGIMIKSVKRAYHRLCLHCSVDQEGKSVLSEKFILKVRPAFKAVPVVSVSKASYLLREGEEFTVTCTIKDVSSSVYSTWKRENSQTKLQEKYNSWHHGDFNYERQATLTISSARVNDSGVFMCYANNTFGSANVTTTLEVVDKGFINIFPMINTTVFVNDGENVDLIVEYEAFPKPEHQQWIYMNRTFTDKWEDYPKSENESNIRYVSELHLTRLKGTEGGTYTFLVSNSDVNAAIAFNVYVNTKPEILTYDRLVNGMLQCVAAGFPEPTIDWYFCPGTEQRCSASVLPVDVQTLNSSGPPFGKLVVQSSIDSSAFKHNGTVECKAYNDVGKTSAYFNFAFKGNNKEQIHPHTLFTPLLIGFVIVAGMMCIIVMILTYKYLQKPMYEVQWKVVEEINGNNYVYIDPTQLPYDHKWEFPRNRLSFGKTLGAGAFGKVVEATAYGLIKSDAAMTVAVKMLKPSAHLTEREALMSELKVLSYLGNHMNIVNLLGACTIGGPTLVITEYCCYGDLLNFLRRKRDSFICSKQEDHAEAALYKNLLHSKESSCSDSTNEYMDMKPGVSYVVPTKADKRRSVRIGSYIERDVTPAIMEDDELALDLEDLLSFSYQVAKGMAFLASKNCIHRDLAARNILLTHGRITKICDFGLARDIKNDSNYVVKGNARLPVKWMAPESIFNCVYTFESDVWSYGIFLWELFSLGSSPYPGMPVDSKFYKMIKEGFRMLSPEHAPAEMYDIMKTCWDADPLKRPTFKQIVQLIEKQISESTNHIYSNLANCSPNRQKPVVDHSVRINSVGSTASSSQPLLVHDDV
# Experimental Protocol: Selectivity interaction (Kinase panel (33PanQinase(R) Activity Assay)) EUB0000877a KIT
Reported Metric: IC50

**Query** Quick check: IC50 of "CCC(=O)N1CC[C@H](Nc2ncnc3c2CN(c2cnc(OC)c(C(F)(F)F)c2)CC3)C1" ?
**Result** > 10 µM

###

# Measured Target: D(1A) dopamine receptor (Homo sapiens)
# Sequence (P21728 whole entry): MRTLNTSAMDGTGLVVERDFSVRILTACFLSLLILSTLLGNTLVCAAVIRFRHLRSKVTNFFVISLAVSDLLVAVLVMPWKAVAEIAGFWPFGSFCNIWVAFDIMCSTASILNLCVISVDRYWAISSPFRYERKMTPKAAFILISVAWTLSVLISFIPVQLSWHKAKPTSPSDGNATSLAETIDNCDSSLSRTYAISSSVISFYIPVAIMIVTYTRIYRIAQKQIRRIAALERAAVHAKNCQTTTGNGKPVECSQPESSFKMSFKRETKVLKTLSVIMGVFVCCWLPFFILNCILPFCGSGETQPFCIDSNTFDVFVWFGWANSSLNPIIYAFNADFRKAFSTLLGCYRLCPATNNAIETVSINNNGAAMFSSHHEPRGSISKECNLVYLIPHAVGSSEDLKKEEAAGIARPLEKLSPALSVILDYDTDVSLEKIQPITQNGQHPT
# Experimental Protocol: Selectivity interaction (Dopamine D1 - cAMP agonist mode ) EUB0000877a DRD1
Reported Metric: IC50

**Query** So what's the measured IC50 for this one? "CCC(=O)N1CC[C@H](Nc2ncnc3c2CN(c2cnc(OC)c(C(F)(F)F)c2)CC3)C1"
**Result** > 30 µM

###

# Measured Target: aryl hydrocarbon receptor (AHR) (Homo sapiens, UniProt P35869)
# Experimental Protocol: Selectivity interaction (Panel of kinases, GPCRs, ion channels and transporters (enzymatic assay)) EUB0000223bCl AHR
Reported Metric: XC50 (µM)
Report only the number, with the unit µM understood.

**Query** // XC50 lookup, key: "COc1cc(C(=O)N2CC[C@@H](O)[C@@H](N)C2)cc2nc(-c3cc4ccccc4n3CC3CC3)n(C)c12"
**Result** 79.4

###

# Measured Target: Casein kinase I isoform alpha-like (Homo sapiens)
# Experimental Protocol: Selectivity interaction (Tracer competition assays (Reaction Biology) ) EUB0001205a CSNK1A1L
Reported Metric: pIC50
Keep in mind that pIC50 stands for -log10 of concentration in molar terms.

**Query** Record request: pIC50 value, item "CN1CCC(F)(Cn2cnc(-c3ccc(F)cn3)c2-c2ccnc3[nH]ccc23)CC1"
**Result** 6.28

###

# Measured Target: KCNQ1 (Homo sapiens)
# Sequence (P51787 whole entry): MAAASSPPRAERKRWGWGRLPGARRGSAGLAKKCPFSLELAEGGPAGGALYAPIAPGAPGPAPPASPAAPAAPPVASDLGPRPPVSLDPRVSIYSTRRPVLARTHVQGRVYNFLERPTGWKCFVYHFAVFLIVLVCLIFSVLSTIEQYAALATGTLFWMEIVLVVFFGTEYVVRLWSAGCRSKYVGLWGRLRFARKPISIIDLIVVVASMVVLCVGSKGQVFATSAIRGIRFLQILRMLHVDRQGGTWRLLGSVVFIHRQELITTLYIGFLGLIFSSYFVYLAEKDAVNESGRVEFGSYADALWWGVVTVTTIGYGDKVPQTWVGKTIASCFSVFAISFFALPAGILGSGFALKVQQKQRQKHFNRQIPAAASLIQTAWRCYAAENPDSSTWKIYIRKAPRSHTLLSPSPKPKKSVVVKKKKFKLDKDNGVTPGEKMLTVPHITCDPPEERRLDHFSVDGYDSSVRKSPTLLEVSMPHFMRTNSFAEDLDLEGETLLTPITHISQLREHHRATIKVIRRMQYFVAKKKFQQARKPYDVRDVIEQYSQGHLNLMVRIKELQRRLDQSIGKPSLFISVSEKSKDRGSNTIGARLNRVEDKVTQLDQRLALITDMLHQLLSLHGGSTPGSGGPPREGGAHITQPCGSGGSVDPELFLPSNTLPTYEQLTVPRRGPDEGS
# Experimental Protocol: Selectivity interaction (Panel of kinases, GPCRs, ion channels and transporters (enzymatic assay)) EUB0000223bCl KCNQ1
Reported Metric: XC50

**Query** Requested read-out: XC50. Entry: "COc1cc(C(=O)N2CC[C@@H](O)[C@@H](N)C2)cc2nc(-c3cc4ccccc4n3CC3CC3)n(C)c12"
**Result** > 25.1 µM

###

# Measured Target: Phosphatidylinositol 4-kinase alpha (Homo sapiens, UniProt P42356)
# Sequence (P42356 whole entry): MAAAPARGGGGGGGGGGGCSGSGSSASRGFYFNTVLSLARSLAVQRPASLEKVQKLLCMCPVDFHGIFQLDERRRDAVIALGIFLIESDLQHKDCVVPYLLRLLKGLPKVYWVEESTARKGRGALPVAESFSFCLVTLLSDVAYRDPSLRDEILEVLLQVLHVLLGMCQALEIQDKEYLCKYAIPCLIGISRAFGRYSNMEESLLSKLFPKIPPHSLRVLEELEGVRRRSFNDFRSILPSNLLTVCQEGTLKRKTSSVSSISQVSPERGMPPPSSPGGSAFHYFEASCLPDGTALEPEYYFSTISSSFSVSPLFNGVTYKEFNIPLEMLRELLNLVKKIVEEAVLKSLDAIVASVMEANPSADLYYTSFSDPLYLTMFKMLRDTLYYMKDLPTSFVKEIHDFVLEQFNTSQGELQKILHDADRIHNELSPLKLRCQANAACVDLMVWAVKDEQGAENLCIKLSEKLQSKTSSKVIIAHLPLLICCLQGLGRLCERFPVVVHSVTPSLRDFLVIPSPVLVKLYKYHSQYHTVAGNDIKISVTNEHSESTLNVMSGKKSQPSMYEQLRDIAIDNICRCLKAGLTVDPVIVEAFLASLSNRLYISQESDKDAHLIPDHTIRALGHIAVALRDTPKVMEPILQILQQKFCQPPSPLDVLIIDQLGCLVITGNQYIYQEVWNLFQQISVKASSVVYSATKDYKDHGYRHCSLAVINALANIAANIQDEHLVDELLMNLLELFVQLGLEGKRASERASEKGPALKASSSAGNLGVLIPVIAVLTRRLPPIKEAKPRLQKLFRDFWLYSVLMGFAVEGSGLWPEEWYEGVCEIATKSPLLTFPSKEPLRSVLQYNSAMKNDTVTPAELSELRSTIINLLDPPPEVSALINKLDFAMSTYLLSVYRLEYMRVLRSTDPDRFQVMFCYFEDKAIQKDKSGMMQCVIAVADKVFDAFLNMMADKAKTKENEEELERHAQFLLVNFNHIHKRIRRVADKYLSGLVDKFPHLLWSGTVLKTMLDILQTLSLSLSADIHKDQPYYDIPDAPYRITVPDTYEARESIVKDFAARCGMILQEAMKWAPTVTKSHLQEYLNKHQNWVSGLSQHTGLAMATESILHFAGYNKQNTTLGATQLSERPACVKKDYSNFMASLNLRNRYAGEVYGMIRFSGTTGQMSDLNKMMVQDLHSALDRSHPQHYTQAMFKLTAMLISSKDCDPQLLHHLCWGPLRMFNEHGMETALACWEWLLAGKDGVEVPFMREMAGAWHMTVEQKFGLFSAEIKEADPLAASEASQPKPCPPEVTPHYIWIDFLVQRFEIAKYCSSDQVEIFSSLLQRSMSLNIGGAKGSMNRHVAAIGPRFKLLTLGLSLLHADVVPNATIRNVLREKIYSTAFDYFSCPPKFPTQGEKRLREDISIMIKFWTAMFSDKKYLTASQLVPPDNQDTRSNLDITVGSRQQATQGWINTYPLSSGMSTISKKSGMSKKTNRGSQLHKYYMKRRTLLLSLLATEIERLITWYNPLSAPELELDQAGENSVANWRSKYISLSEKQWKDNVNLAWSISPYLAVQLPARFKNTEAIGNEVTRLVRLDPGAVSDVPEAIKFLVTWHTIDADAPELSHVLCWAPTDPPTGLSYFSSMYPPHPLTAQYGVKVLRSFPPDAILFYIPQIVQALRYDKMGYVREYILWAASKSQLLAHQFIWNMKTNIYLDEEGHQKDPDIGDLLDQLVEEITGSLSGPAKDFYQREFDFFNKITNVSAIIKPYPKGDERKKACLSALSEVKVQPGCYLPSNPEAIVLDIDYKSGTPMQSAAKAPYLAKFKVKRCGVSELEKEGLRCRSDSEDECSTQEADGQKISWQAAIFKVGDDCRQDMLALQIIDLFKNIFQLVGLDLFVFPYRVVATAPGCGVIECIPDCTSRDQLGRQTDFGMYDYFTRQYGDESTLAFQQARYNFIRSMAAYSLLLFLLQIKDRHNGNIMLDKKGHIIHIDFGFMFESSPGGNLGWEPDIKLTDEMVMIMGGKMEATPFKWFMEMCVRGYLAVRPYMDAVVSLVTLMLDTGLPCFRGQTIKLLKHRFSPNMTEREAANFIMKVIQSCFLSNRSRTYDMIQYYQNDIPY
# Experimental Protocol: Selectivity interaction (Kinase panel (radiometric assay)) EUB0000877a PI4KA
Reported Metric: IC50

**Query** Lab note: need IC50 for "CCC(=O)N1CC[C@H](Nc2ncnc3c2CN(c2cnc(OC)c(C(F)(F)F)c2)CC3)C1" on Phosphatidylinositol 4-kinase alpha (Homo sapiens, UniProt P42356), anyone have it?
**Result** > 9.1 µM

###

# Measured Target: Cyclin-dependent kinase 7 (Homo sapiens, UniProt P50613)
# Experimental Protocol: Selectivity interaction (Western blot assay (pull-down blockage of CDK7-cyclin H using lysates from HAP1 cells)) EUB0001635a CDK7
# Format: cell-based
Reported Metric: IC50

**Query** Requested read-out: IC50. Entry: "C=CC(=O)Nc1ccc(C(=O)Nc2n[nH]c3c2CN(C(=O)N[C@H](CN(C)C)c2ccccc2)C3(C)C)cc1"
**Result** > 30 µM

###

# Measured Target: Mitotic checkpoint serine/threonine-protein kinase BUB1 (Homo sapiens)
pIC50: −log10 of the molar value.
Reported Metric: pIC50

**Query** What measured pIC50 is associated with "CCc1cccc(CC)c1NC(=O)c1nn(C)c2c1CCc1cnc(Nc3ccc(C(=O)NC4CCN(C)CC4)cc3OC(F)(F)F)nc1-2" on Mitotic checkpoint serine/threonine-protein kinase BUB1 (Homo sapiens)?
**Result** < 5.00

###

# Measured Target: UniProtKB P49761
Reported Metric: IC50

**Query** Item "CN(c1ncccc1CNc1ccnc(-c2nc3c(F)c(Cl)ccc3[nH]2)n1)S(C)(=O)=O" with UniProtKB P49761 - IC50?
**Result** > 10 µM

###

# Measured Target: Protein arginine N-methyltransferase 6 (Homo sapiens)
# Experimental Protocol: Selectivity interaction (Scintillation proximity assay) EUB0000261b PRMT6
Reported Metric: IC50

**Query** Param readout = IC50; param system = Protein arginine N-methyltransferase 6 (Homo sapiens); param query = "CC(C)Oc1ccc(-c2c[nH]cc2CN(C)CCO)cc1" ; response: value
**Result** > 20 µM

###

# Experimental Protocol: Selectivity interaction (Kinase panel (cellular selectivity, Bright-Glo proliferation assay in BaF3 Cell line, Promega)) EUB0000678a MET
Reported Metric: pIC50
pIC50 field: float, defined as -log10 of concentration (mol/L).

**Query** Report pIC50 for "CCN1CCN(c2ccc(Nc3cc(N(C)C(=O)Nc4c(Cl)c(OC)cc(OC)c4Cl)ncn3)cc2)CC1" please.
**Result** 5.52

###

# Measured Target: STE20-like serine/threonine-protein kinase (Homo sapiens, UniProt Q9H2G2)
# Experimental Protocol: Selectivity interaction (Competition-binding assay (DiscoverX)) EUB0000229b SLK
Reported Metric: Kd

**Query** Data request, read-out Kd, for "COc1cc(N(C)c2ccnc3ccc(C(F)(F)F)cc23)cc(OC)c1OC"
**Result** > 10 µM

###

# Measured Target: Receptor-type tyrosine-protein kinase FLT3 (Homo sapiens)
# Sequence (P36888 whole entry): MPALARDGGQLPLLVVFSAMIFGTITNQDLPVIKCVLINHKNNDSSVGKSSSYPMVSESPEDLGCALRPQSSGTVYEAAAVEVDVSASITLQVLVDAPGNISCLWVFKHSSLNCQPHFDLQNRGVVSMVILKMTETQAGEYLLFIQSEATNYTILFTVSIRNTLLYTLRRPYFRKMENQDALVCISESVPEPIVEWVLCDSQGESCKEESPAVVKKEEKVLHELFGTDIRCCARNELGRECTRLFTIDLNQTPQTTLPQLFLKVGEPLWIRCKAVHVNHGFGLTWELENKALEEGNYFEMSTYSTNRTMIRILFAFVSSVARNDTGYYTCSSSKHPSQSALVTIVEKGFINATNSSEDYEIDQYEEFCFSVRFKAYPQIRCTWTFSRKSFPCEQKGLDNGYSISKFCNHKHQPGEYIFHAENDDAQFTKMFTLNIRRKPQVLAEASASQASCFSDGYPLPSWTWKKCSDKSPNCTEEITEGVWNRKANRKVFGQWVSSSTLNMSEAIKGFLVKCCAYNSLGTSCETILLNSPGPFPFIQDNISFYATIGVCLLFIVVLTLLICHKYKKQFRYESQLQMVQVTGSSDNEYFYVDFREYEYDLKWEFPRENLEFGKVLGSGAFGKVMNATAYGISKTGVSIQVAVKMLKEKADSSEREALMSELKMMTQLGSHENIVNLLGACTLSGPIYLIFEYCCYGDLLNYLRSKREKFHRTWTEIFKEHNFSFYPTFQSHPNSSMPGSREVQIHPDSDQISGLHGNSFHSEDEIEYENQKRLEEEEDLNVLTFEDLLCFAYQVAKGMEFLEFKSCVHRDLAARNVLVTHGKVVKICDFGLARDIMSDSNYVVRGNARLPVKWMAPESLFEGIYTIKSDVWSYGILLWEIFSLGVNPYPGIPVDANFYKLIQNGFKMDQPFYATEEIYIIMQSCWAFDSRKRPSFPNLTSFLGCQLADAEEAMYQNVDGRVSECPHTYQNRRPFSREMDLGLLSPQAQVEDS
# Experimental Protocol: Selectivity interaction (Kinase panel (Eurofins, enzymatic assay)) EUB0000311b FLT3
Reported Metric: IC50 (nM)
Output spec: scalar in nM, unitless text.

**Query** Request - read-out IC50 | tested on Receptor-type tyrosine-protein kinase FLT3 (Homo sapiens) | molecule "CCc1ccccc1C(=O)Nc1n[nH]c2c(C)c(F)c(C3C(C#N)=C(C)N(C)C(C)=C3C#N)cc12"
**Result** 124
